- Measured Target: recombinant soluble homotrimeric HA of A/California/4/09 (H1N1) (Influenza A virus A/California/04/2009(H1N1))
- Assay Name: trimeric HA microarray, transfection supernatant set 2
- Condition Set: remark: other sources report otherwise
Record form. Attribute: Trimeric HA Binding: RLU. Fill in for each entry.
Value expressed in RLU; do not type the unit.

Looking up TCN-504 (3251_K17) (antibody, V domains shown) VH: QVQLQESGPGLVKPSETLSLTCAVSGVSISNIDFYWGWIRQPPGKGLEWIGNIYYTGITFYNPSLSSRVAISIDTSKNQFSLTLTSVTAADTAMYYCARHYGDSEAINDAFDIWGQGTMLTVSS VL: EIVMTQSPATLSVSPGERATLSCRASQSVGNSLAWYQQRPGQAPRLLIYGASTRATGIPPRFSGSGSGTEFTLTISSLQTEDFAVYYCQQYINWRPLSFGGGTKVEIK , I see its Trimeric HA Binding: RLU listed as 15600

Looking up TCN-523 (5248_A17) (antibody, V domains shown) VH: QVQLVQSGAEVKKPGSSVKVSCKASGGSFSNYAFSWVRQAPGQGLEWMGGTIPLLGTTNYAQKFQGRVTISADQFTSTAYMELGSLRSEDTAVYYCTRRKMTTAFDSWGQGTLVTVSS VL: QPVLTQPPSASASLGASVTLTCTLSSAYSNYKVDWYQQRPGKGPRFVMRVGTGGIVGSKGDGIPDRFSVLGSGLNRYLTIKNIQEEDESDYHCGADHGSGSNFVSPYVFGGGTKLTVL , I see its Trimeric HA Binding: RLU listed as 18700
